B1: tRNA (parent)
chain: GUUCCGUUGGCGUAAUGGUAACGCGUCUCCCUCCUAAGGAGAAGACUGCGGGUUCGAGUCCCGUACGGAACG

Variants of: B1
Test: yeast fitness relative to wild type (ratio to wild type); higher = fitter; tRNA-Arg(CCU), competitive growth, 37 C, YPD
This sample holds only a part of the variants without activity.
endpoint: yeast fitness
Form: value (number only, do not type unit).

Consider the reported yeast fitness for these variants:
sequenceEntry | assayValue
GUUCCGUGGGUGUAACGGUAACGCGUCUCCCUCCUAAGGAGUAGACUGCGGGUUCGAGUCCCGUACGGAACG [U8G C11U U16C A42U] | 0.749
GUUCCAUUGGCGUAAUGGUAACGCGUCUCCCUCCUAAGCAGAAGACUGCGGGUUCGAGUCCCGCACGGAACG [G6A G39C U64C] | 0.605
GUUCCGCUGGCGUAACGGUAACGCGUCUCCCUCCUAAGGAGAAGACUGCGGGUUCGAGUCCCGUACGGAACG [U7C U16C] | 0.831
GUGCCGUUGGCGUAAUGGUAACGUGUCCCCCUCCUAAGGAGAAGACUGCGGGUUCGAGUCCCGUACGGAACG [U3G C24U U28C] | 0.599

yeast fitness reading for GUUCCGUUGGCGUAAUGGUAACGCCUCUCCAUCCUAAGGAGAAGACUGCGGGUUCGAGUCCCGUCCGGAACG [G25C C31A A65C] : 0.678
